Reported pIC50 by item:
# system_name: GCK (Homo sapiens, UniProt Q12851)
# Sequence (Q12851 1-820): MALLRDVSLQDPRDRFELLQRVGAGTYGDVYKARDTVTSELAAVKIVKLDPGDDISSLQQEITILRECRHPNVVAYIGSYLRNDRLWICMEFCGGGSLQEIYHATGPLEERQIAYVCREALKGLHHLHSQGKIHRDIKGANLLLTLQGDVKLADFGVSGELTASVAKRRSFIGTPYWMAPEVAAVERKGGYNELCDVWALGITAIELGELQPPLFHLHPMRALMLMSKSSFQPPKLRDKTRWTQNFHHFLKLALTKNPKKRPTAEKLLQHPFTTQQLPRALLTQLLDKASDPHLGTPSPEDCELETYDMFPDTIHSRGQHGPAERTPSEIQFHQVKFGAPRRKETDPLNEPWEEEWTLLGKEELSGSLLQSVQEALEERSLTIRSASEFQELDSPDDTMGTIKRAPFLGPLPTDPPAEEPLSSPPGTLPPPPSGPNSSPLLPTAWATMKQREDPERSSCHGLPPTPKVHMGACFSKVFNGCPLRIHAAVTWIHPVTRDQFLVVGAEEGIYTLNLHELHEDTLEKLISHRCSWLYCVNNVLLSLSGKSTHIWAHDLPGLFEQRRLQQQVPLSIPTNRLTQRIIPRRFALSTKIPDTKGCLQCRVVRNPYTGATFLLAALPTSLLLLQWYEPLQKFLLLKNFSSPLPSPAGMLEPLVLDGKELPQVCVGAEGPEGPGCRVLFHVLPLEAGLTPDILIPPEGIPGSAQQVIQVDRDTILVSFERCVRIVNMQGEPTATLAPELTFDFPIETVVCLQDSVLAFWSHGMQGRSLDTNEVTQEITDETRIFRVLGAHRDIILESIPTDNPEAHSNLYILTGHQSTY
pIC50: −log10 of the molar value.

>  <entry_smiles>
Cc1ccc(NC(=O)c2cccc(C(F)(F)F)c2)cc1N1Cc2cnc(NC3CCCCC3)nc2N(C)C1=O

>  <measured_endpoint>
pIC50

>  <result>
≤ 6.52

$$$$

Now consider a different molecule.
// pIC50 value for Cc1ccc(NC(=O)c2cccc(C(F)(F)F)c2)cc1N1Cc2cnc(NCCO)nc2N(C)C1=O : 7.35 to 7.52

----------
# Tested on: OCI-AML3 (N-RasQ61L)
# experiment: Proliferation inhibitory activity, OCI-AML3 cell line
# Assay type: cell-based
# measurement_conditions: Homo sapiens, OCI-AML-3; OCI-AML3 (mt-NRAS) cell line; read-out: Proliferation inhibitory ability (GI50, μM) OCI-AML3 (N-RasQ61L)
Reported GI50 by item:

>  <entry_smiles>
Cc1ccc(NC(=O)c2cccc(C(F)(F)F)c2)cc1N1Cc2cnc(NCCO)nc2N(C)C1=O

>  <system_name>
OCI-AML3 (N-RasQ61L)

>  <GI50>
0.7 to 1.2 µM

$$$$
>  <entry_smiles>
Cc1ccc(NC(=O)c2cccc(C(F)(F)F)c2)cc1N1Cc2cnc(Nc3ccccc3)nc2N(C)C1=O

>  <system_name>
OCI-AML3 (N-RasQ61L)

>  <GI50>
0.2 to 0.7 µM

$$$$
>  <entry_smiles>
CCN1CCN(c2ccc(Nc3ncc4c(n3)N(C)C(=O)N(c3cc(NC(=O)c5cccc(C(F)(F)F)c5)ccc3C)C4)cn2)CC1

>  <system_name>
OCI-AML3 (N-RasQ61L)

>  <GI50>
< 0.2 µM

$$$$

Test item Cc1ccc(NC(=O)c2cccc(C(F)(F)F)c2)cc1N1Cc2cnc(Nc3cnn(C)c3)nc2N(C)C1=O ; OCI-AML3 (N-RasQ61L); reported GI50 was 0.2 to 0.7 µM

Test item Cc1ccc(NC(=O)c2cccc(C(F)(F)F)c2)cc1N1Cc2cnc(NC3CCCCC3)nc2N(C)C1=O ; OCI-AML3 (N-RasQ61L); reported GI50 was ≥ 2 µM

Test item CCN1CCN(c2cccc(Nc3ncc4c(n3)N(C)C(=O)N(c3cc(NC(=O)c5cccc(C(F)(F)F)c5)ccc3C)C4)c2)CC1 ; OCI-AML3 (N-RasQ61L); reported GI50 was < 0.2 µM

Test item Cc1ccc(NC(=O)c2cccc(C(F)(F)F)c2)cc1N1Cc2cnc(NC3CC3)nc2N(C)C1=O ; OCI-AML3 (N-RasQ61L); reported GI50 was 0.2 to 0.7 µM
